STUDY TARGET: HCV NS3-4A serine protease (full-length NS3-4A protein) (Hepatitis C virus genotype 1a (isolate 1) (HCV))
PROTOCOL DESCRIPTION: HCV NS3-4A protease assay
PARTICULARS: strain HCV-1, fluorogenic peptide substrate, read-out: Protease assay Ex. 12 IC50
Experimental: The inhibitory activity of certain compounds of Table A against HCV NS3-4A serine protease is determined in a homogenous assay using the full-length NS3-4A protein (genotype 1a, strain HCV-1) and a commercially available internally-quenched fluorogenic peptide substrate as described by Taliani, M., et al. 1996 Anal. Biochem. 240:60-67, which is incorporated by reference in its entirety.
The entries below come with measured pIC50 values attached.
When answering, recall that pIC50 equals minus log10 of the concentration in mol/L, and write that number alone.

Example cases with answers are listed next.
COMPOUND | pIC50
C=C[C@@H]1C[C@]1(NC(=O)[C@@H]1C[C@@]2(CN1C(=O)[C@@H](NC(=O)[C@@H](NC(=O)[C@@H]1CCCCN1C(C)C)C1CCCCC1)C1CCCCC1)C(C)(C)C21CCC1)C(=O)NS(=O)(=O)N1CCCC1 [Compound 35] | 8.52
C=CC1CC1(NC(=O)[C@@H]1C[C@@]2(CN1C(=O)[C@@H](NC(=O)[C@@H](NC(=O)C1CCCCN1C(C)C)C1CCCCC1)C(C)(C)C)C(C)(C)C21CCC1)C(=O)NS(=O)(=O)N1CC(F)(F)C1 (stereo partly drawn) [Compound 164] | 8.10
C=C[C@@H]1C[C@]1(NC(=O)[C@@H]1C[C@@]2(CN1C(=O)[C@@H](NC(=O)[C@@H](NC(=O)[C@H]1CCCN1C(C)C)C(C)(C)C)C(C)(C)C)C(C)(C)C21CCC1)C(=O)NS(=O)(=O)N1CCCC1 [Compound 21] | 7.46
C=C[C@@H]1C[C@]1(NC(=O)[C@@H]1C[C@@]2(CN1C(=O)[C@@H](NC(=O)[C@@H](NC(=O)c1cc(C(C)(C)C)nn1C)C1CCCCC1)C(C)(C)C)C(C)(C)C21CCC1)C(=O)NS(=O)(=O)N1CCCC1 [Compound 181] | 7.05
C=C[C@@H]1C[C@]1(NC(=O)[C@@H]1C[C@@]2(CN1C(=O)[C@@H](NC(=O)[C@@H](NC(=O)c1nccc3ccccc13)C1CCCCC1)C(C)(C)C)C(C)(C)C21CCC1)C(=O)NS(=O)(=O)N1CCCC1 [Compound 195] | 7.12

(Q) Tell me the measured pIC50 of C=C[C@@H]1C[C@]1(NC(=O)[C@@H]1C[C@@]2(CN1C(=O)[C@@H](NC(=O)[C@@H](NC(=O)[C@@H]1CCCN1CC)C(C)(C)C)C1(C)CCOCC1)C(C)(C)C21CCC1)C(=O)NS(=O)(=O)N1CCCC1 [Compound 126] , please.
(A) 8.22

(Q) Let us now turn to C=C[C@@H]1C[C@]1(NC(=O)[C@@H]1C[C@@]2(CN1C(=O)[C@@H](NC(=O)[C@@H](NC(=O)[C@@H]1CCCCN1C(C)C)C1CCCCC1)C(C)(C)C)C(C)(C)C21CCC1)C(=O)NS(=O)(=O)N(C)C1CCC1 [Compound 49]
(A) 8.48

(Q) Let us now turn to C=C[C@@H]1C[C@]1(NC(=O)[C@@H]1C[C@@]2(CN1C(=O)[C@@H](NC(=O)[C@@H](NC(=O)[C@@H]1CCCCN1C(C)C)C1(C)CCCCC1)C(C)(C)C)C(C)(C)C21CCC1)C(=O)NS(=O)(=O)N(CC)CC [Compound 133]
(A) 8.52

(Q) Let us now turn to CC[C@@H]1C[C@]1(NC(=O)[C@@H]1C[C@@]2(CN1C(=O)[C@@H](NC(=O)[C@@H](NC(=O)[C@@H]1CCCCN1CC)C1CCCCC1)C(C)(C)C)C(C)(C)C21CCC1)C(=O)NS(=O)(=O)N1CCCC1 [Compound 87]
(A) 8.15

----------
STUDY TARGET: HCV NS3-4A serine protease (full-length NS3-4A protein) (Hepatitis C virus genotype 1a (isolate 1) (HCV), UniProt P26664)
Sequence (P26664 1027-1657): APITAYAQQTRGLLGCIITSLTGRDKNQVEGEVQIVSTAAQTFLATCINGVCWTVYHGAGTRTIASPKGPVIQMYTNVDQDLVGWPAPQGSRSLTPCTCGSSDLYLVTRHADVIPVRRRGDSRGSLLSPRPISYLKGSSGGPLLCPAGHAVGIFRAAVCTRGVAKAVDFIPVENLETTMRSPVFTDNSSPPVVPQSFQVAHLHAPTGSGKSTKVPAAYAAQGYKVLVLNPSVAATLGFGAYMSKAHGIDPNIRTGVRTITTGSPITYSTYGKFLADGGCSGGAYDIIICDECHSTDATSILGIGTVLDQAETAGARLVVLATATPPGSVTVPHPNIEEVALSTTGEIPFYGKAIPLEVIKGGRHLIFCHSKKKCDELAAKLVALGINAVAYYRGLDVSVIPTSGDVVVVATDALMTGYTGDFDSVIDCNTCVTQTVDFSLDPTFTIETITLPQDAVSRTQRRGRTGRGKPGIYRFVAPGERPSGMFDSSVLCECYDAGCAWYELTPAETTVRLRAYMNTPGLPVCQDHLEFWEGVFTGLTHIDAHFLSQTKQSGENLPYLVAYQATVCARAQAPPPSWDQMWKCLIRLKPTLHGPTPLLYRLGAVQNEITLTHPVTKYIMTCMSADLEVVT
Sequence (P26664 1658-1711 partner): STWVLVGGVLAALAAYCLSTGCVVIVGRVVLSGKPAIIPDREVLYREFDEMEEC
PROTOCOL DESCRIPTION: HCV NS3-4A protease assay
PARTICULARS: strain HCV-1, fluorogenic peptide substrate, read-out: Protease assay Ex. 12 IC50
PROPERTY: IC50 (nM)
Please give a number only; it is taken to be in nM.

Example cases with answers are listed next.
COMPOUND | IC50 [nM]
C=C[C@@H]1C[C@]1(NC(=O)[C@@H]1C[C@@]2(CN1C(=O)[C@@H](NC(=O)[C@@H](NC(=O)[C@@H]1CCCCN1C(C)C)C1(C)CCCCC1)C1(C)CCOCC1)C(C)(C)C21CCC1)C(=O)NS(=O)(=O)N(CC)CC | 1.1
C=C[C@@H]1C[C@]1(NC(=O)[C@@H]1C[C@@]2(CN1C(=O)[C@@H](NC(=O)[C@@H](NC(=O)[C@@H]1CCCN1CC)C1CCCCC1)C(C)(C)C)C(C)(C)C21CCC1)C(=O)NS(=O)(=O)N(C)CCC | 7
CC[C@@H]1C[C@]1(NC(=O)[C@@H]1C[C@@]2(CN1C(=O)[C@@H](NC(=O)[C@@H](NC(=O)[C@@H]1CCCN1C(C)C)C1CCCCC1)C(C)(C)C)C(C)(C)C21CCC1)C(=O)NS(=O)(=O)N1CCCC1 | 4.5
C=C[C@@H]1C[C@]1(NC(=O)[C@@H]1C[C@@]2(CN1C(=O)[C@@H](NC(=O)[C@@H](NC(=O)[C@@H]1CCCN1CC)C1CCCCC1)C(C)(C)C)C(C)(C)C21CCC1)C(=O)NS(=O)(=O)N(CC)CCC | 9
C=C[C@@H]1C[C@]1(NC(=O)[C@@H]1C[C@@]2(CN1C(=O)[C@@H](NC(=O)[C@@H](NC(=O)[C@@H]1CCCN1C(C)C)C1CCCCC1)C(C)(C)C)C(C)(C)C21CCC1)C(=O)NS(=O)(=O)N1CCCC1 | 2
[2H]C([2H])([2H])C([2H])([2H])N1CCCC[C@H]1C(=O)NC(C(=O)N[C@H](C(=O)N1C[C@]2(C[C@H]1C(=O)N[C@]1(C(=O)NS(=O)(=O)N3CCCC3)C[C@H]1C=C)C(C)(C)C21CCC1)C(C)(C)C)C1CCCCC1 (some centres unmarked) | 3.5

(Q) Tell me the measured IC50 of [2H]C([2H])([2H])N(C([2H])([2H])[2H])S(=O)(=O)NC(=O)[C@@]1(NC(=O)[C@@H]2C[C@@]3(CN2C(=O)[C@@H](NC(=O)[C@@H](NC(=O)[C@@H]2CCCCN2C(C)C)C2CCCCC2)C(C)(C)C)C(C)(C)C32CCC2)C[C@H]1C=C , please.
(A) 0.8

(Q) Let us now turn to C=C[C@@H]1C[C@]1(NC(=O)[C@@H]1C[C@@]2(CN1C(=O)[C@@H](NC(=O)[C@@H](NC(=O)[C@@H]1CCCCN1C(C)C)C1(C)CCOCC1)C1(C)CCCCC1)C(C)(C)C21CCC1)C(=O)NS(=O)(=O)N(CC)CC
(A) 22

----------
The entries below come with measured IC50 values attached.
STUDY TARGET: HCV NS3-4A serine protease (full-length NS3-4A protein) (Hepatitis C virus genotype 1a (isolate 1) (HCV), UniProt P26664)
PROTOCOL DESCRIPTION: HCV NS3-4A protease assay
PARTICULARS: strain HCV-1, fluorogenic peptide substrate, read-out: Protease assay Ex. 12 IC50
Please give a number only; it is taken to be in nM.

COMPOUND | IC50 [nM]
CC[C@@H]1C[C@]1(NC(=O)[C@@H]1C[C@@]2(CN1C(=O)[C@@H](NC(=O)[C@@H](NC(=O)[C@@H]1CCCN1C(C)C)C1CCCCC1)C(C)(C)C)C(C)(C)C21CCC1)C(=O)NS(=O)(=O)N(CC)CC [Compound 117] | 5.5
C=C[C@@H]1C[C@]1(NC(=O)[C@@H]1C[C@@]2(CN1C(=O)[C@@H](NC(=O)[C@@H](NC(=O)[C@@H]1CCCN1C(C)C)C(C)(C)C)C(C)(C)C)C(C)(C)C21CCC1)C(=O)NS(=O)(=O)N1CCCC1 [Compound 11] | 20
C=C[C@@H]1C[C@]1(NC(=O)C1C[C@@]2(CN1C(=O)[C@@H](NC(=O)[C@@H](NC(=O)[C@@H]1CCCCN1C(C)C)C(C)(C)C)C1CCOCC1)C(C)(C)C21CCC1)C(=O)NS(=O)(=O)N1CCCC1 (stereo partly shown) [Compound 67] | 20

Next, consider the following compound.
(Q) Tell me the measured IC50 of C=C[C@@H]1C[C@]1(NC(=O)[C@@H]1C[C@@]2(CN1C(=O)[C@@H](NC(=O)[C@@H](NC(=O)c1ccccc1NC)C1CCCCC1)C(C)(C)C)C(C)(C)C21CCC1)C(=O)NS(=O)(=O)N1CCCC1 [Compound 182] , please.
(A) 70
